# target_of_assay: human D2long receptor (Homo sapiens, UniProt P14416)
# Construct: expressed in transfected cells; host or cells: Chinese hamster ovary (CHO) cells, membranes
# Sequence (P14416 whole entry): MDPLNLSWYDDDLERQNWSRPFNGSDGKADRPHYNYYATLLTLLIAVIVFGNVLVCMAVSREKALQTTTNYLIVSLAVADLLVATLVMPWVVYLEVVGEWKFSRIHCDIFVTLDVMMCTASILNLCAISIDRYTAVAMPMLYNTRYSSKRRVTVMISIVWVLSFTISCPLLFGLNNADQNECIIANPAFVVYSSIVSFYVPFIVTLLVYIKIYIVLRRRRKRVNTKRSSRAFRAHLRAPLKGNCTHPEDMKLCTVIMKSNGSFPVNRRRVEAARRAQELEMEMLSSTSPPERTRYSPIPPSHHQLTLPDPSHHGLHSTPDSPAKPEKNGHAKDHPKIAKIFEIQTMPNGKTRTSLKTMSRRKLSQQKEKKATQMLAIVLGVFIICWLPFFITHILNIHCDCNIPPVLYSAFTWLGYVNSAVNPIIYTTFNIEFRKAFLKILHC
# assay_info: radioligand binding with [^3H]spiperone, D2long
# experimental_setup: ether alkylene linker compounds; read-out: Ki D2lo
recorded_metric: pKi
Give bare numbers, as −log10 of the molar value.

INSERT INTO assay_data (compound, target_of_assay, observed_result) VALUES
  ('COc1ccccc1N1CCN(CCCCOc2cc3ccccn3n2)CC1 [Example E2]', 'human D2long receptor (Homo sapiens, UniProt P14416)', 8.00),
  ('Clc1cccc(N2CCN(CCCCOc3cc4ccccn4n3)CC2)c1Cl [Example E1]', 'human D2long receptor (Homo sapiens, UniProt P14416)', 8.03),
  ('COc1ccccc1N1CCN(CCCCOc2ccn3ncc(Cl)c3c2)CC1 [Example E46]', 'human D2long receptor (Homo sapiens, UniProt P14416)', 8.17);

Now consider the entry below.
Task: Retrieve pKi on human D2long receptor (Homo sapiens, UniProt P14416); query COc1ccccc1N1CCN(CCCCOc2ccn3ncc(Br)c3c2)CC1 [Example E43]
Result: 8.31

----------
Would you kindly list pKi for each of these compounds?
# target_of_assay: 5-HT1A receptor (Sus scrofa, UniProt A0A4X1UTF5)
# Construct: membrane preparations from porcine cortical material; from tissue; host or cells: porcine cerebral cortex membranes
# Sequence (A0A4X1UTF5 1-422): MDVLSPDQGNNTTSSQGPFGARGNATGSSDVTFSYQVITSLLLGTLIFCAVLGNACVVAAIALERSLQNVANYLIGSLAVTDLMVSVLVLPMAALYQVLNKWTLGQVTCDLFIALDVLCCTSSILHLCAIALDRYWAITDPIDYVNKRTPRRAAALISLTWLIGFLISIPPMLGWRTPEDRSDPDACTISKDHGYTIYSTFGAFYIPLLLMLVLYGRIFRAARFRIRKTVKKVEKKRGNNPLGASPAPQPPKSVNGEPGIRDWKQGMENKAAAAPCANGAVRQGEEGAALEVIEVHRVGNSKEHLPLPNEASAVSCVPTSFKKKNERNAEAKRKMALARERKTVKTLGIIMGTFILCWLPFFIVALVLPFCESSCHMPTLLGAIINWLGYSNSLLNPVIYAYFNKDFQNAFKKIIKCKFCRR
# assay_info: radioligand binding, porcine cortical membranes, [^3H]8-OH-DPAT and [^3H]WAY 100635
# experimental_setup: porcine cortical membranes
pKi: −log10 of the molar value.

INSERT INTO measurements (compound, observed_result) VALUES
  ('COc1ccccc1N1CCN(CCCCOc2ccn3ncc(Cl)c3c2)CC1 [Example E46]', '> 7.52'),
  ('COc1ccccc1N1CCN(CCCCOc2cc3ccccn3n2)CC1 [Example E2]', '> 7.52'),
  ('O=Cc1cnn2cc(OCCCCN3CCN(c4cccc(Cl)c4Cl)CC3)ccc12 [Example E54]', '> 7.52'),
  ('O=Cc1cnn2ccc(OCCCCN3CCN(c4ccc(O)cc4)CC3)cc12 [Example E26]', '6.52 to 7.52'),
  ('Clc1cccc(N2CCN(CCCOCc3ccn4nccc4c3)CC2)c1Cl [Example E13]', '6.52 to 7.52'),
  ('Clc1cccc(N2CCN(CCCCOc3cc4ccccn4n3)CC2)c1Cl [Example E1]', '> 7.52'),
  ('O=Cc1cnn2cccc(OCCCCN3CCN(c4ccccc4Cl)CC3)c12 [Example E12]', '> 7.52'),
  ('COC(=O)c1cnn2ccc(OCCCCN3CCN(c4ccccc4OC)CC3)cc12 [Example E40]', '> 7.52');

Please supply pKi for each of the following items, keeping them in order.
1. COc1ccccc1N1CCN(CCCCOc2ccn3ncc(C)c3c2)CC1 [Example E75]
2. COc1ccccc1N1CCN(CCCCOc2ccn3ncc(C=NO)c3c2)CC1 [Example E31]
3. O=Cc1cnn2cccc(OCCCCN3CCN(c4cccc(Cl)c4Cl)CC3)c12 [Example E10]

Result:
1. > 7.52
2. > 7.52
3. 6.52 to 7.52
